Tested target: type IV collagenases (Homo sapiens)
Construct: type IV collagenases prepared from a serum-free culture medium of human melanoma cells; endogenous in cells
Sequence (P08253 110-660): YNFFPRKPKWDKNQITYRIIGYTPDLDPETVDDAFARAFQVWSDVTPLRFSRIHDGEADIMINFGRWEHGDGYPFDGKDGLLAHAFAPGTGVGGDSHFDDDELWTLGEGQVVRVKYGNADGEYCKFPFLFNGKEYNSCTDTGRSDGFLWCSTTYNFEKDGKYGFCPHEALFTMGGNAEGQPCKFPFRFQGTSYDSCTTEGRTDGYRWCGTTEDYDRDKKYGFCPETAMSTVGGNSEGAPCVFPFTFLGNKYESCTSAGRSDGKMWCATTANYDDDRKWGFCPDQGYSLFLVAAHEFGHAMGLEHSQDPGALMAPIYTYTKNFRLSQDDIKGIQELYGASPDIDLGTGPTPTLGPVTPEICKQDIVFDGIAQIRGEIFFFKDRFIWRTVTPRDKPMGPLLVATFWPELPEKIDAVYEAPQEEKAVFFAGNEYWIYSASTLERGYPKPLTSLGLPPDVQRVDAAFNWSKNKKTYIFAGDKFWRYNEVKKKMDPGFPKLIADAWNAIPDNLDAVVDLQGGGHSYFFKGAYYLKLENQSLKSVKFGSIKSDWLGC
Test: Inhibitory activity on type IV collagenases: cleavage of radio-labelled type IV collagen
Measurement context: type IV collagenases from serum-free culture medium of human melanoma cells; radio-labelled type IV collagen from mouse EHS tumor as substrate
pIC50: −log10 of the molar value.
Observation type: pIC50

Worked cases, answers included:
# Molecule, pIC50
rows = [
    ("CCCCC[C@H](CC(=O)NO)C(=O)N1NCCC[C@H]1C(N)=O", 6.60),
    ("CCCCC[C@H](CC(=O)NO)C(=O)N1NCCC[C@H]1C(=O)NCC(C)C", 6.62),
    ("CN(C)C(=O)[C@@H]1CCCNN1C(=O)[C@H](CCc1ccccc1)CC(=O)NO", 6.55),
    ("CCCCCCCCCC[C@H](CC(=O)NO)C(=O)N1NCCC[C@H]1C(=O)NC", 7.57),
]

(1) CCCCC[C@H](CC(=O)NO)C(=O)N1NCCC[C@H]1C(=O)N[C@H](C(=O)OC(C)(C)C)C(C)C
(2) CNC(=O)[C@@H]1CCCNN1C(=O)[C@H](CCc1ccccc1)CC(=O)NO
(3) CCCCC[C@H](CC(=O)NO)C(=O)N1NCCC[C@@H]1C(=O)N[C@H](C(=O)CC)[C@@H](C)CC [Example 110, reference compound]
(4) CCCCC[C@H](CC(=O)NO)C(=O)N1NCCC[C@H]1C(=O)NCC
(5) CCCCC[C@H](CC(=O)NO)C(=O)N1NCCC[C@H]1C(=O)N[C@@H](C(=O)CC)[C@H](C)CC [Example 109, reference compound]
Ask | Rank the items in ascending order with respect to pIC50. Respond with the label ranking, as requested.
Reply | 3, 5, 1, 4, 2
(3: 4.73, 5: 5.37, 1: 6.44, 4: 6.80, 2: 7.14)

(P) CCCCCCC[C@H](CC(=O)NO)C(=O)N1NCCC[C@H]1C(=O)N(C)C
(Q) CCCCCC[C@H](CC(=O)NO)C(=O)N1NCCC[C@H]1C(=O)NC
Ask | Given P and Q , report the one with the higher recorded pIC50. Return value: the label identifying the chosen record.
Reply | Q
(Q: 7.09, P: 6.57)

(a) CCCCC[C@H](CC(=O)NO)C(=O)N1NCCC[C@H]1C(=O)N[C@H](C(=O)OC)C(C)C
(b) CCCCCCCC[C@H](CC(=O)NO)C(=O)N1NCCC[C@H]1C(=O)N(C)C
(c) CCCCCCCC[C@H](CC(=O)NO)C(=O)N1NCCC[C@H]1C(=O)N(CC)CC
Ask | Rank the items in ascending order with respect to pIC50. Respond with the label ranking, as requested.
Reply | a, c, b

(P) CCCCC[C@H](CC(=O)NO)C(=O)N1NCCC[C@H]1C(=O)N[C@H](C(=O)N(C)OC)C(C)C
(Q) CCCCCCCCCC[C@H](CC(=O)NO)C(=O)N1NCCC[C@H]1C(=O)N(C)C
Ask | Given P and Q , report the one with the higher recorded pIC50. Return value: the label identifying the chosen record.
Reply | Q

---

Tested target: type IV collagenases (Homo sapiens)
Construct: type IV collagenases prepared from a serum-free culture medium of human melanoma cells; endogenous in cells
Test: Inhibitory activity on type IV collagenases: cleavage of radio-labelled type IV collagen
Measurement context: type IV collagenases from serum-free culture medium of human melanoma cells; radio-labelled type IV collagen from mouse EHS tumor as substrate
Observation type: IC50 (µM)

(a) CC(C)C[C@H](CC(=O)NO)C(=O)N1NCCC[C@H]1C(=O)N(C)C
(b) CCCCCCCC[C@H](CC(=O)NO)C(=O)N1NCCC[C@H]1C(=O)NCC
Ask | Given a and b , report the one with the higher recorded IC50. Return value: the label identifying the chosen record.
Reply | a

(a) CCCCCCC[C@H](CC(=O)NO)C(=O)N1NCCC[C@H]1C(=O)NC
(b) CCCCC[C@H](CC(=O)NO)C(=O)N1NCCC[C@H]1C(=O)N[C@H](C(=O)CC)[C@@H](C)CC [Example 108, reference compound]
Ask | Given a and b , report the one with the higher recorded IC50. Return value: the label identifying the chosen record.
Reply | b
